Hi there, I'd appreciate the recorded pKd for every entry that follows.
Target: T1, purified ALK protein (BLitz, Table 20) (Homo sapiens (Human), UniProt Q9UM73 19-1038, limits assumed)
T1 construct: also called purified ALK proteins
T1 sequence (Q9UM73 19-1038 limits assumed): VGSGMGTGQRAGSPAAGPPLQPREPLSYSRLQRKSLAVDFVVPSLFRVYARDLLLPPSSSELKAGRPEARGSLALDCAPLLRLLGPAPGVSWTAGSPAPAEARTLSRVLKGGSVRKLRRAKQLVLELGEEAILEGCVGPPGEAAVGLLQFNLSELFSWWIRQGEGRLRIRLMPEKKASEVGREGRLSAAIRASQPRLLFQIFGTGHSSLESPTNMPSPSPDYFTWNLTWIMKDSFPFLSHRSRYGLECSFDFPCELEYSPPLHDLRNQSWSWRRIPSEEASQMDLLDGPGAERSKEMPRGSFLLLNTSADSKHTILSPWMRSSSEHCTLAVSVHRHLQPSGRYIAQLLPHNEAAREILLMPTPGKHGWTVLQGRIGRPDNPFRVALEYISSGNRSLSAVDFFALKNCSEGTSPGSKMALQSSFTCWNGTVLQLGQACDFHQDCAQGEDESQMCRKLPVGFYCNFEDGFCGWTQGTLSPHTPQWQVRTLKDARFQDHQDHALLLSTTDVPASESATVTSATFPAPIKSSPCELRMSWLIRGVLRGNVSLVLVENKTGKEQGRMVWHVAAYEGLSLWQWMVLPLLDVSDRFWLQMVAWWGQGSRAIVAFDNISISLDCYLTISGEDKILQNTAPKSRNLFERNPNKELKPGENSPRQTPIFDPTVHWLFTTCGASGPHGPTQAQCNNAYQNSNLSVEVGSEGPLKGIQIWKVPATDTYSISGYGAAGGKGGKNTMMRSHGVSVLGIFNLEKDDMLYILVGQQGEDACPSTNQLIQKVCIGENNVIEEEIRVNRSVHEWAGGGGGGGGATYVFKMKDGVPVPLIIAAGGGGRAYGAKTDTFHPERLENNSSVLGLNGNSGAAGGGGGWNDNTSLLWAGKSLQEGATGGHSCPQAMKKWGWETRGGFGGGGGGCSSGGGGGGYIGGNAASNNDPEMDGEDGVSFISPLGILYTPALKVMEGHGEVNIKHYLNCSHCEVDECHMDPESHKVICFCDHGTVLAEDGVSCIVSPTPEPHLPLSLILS
Experiment: BLI (BLitz), mAb on Protein A tip, purified ALK in solution
Scale for pKd: -log10 of concentration given in mol/L; no unit attached.

Problem: Requested field: pKd. Item: Ab411 (antibody, V domains shown, humanized) VH: QVQLVQSGAEVAKPGTSVKLSCKASGYTFTSYWMHWVKQAPGQGLEWIGYIKPSSGYTKYNQKFKDKVTLTADKSTSTAYMELSSLRSEDTAVYYCARDYYGSSSWFAYWGQGTLVTVSS VL: EIVMTQSQATLSTSPGERATLSCKASQNVGTNVAWYQQKPGQAPRALIYSASYRYSGVPARFSGSGSGTDFTLTISSVEPEDFAVYYCQQYNSYPYMYTFGQGTKLEIK
Solution: 6.84

Problem: Requested field: pKd. Item: Ab363 (antibody, V domains shown, humanized) VH: QVQLVQSGAEVAKPGTSVKLSCKASGYTFTSYWMHWVKQAPGQGLEWIGYIKPSSGYTKYNQKFKDKVTLTADKSTSTAYMELSSLRSEDTAVYYCARDYYGSSSWFAYWGQGTLVTVSS VL: DIVMTQSQAFMSVTVGEKVTITCKASQNVGTNVAWYQQKPDQAPKALIYSASYRYSGVPSRFSGSGSGTDFTLTISSLEAEDAATYYCQQYNSYPYMYTFGQGTKLEIK
Solution: 6.92

Problem: Requested field: pKd. Item: Ab418 (antibody, V domains shown, humanized) VH: EVQLVQSGAEVKKPGASVKLSCKASGYTFTSYWMHWVRQAPGQGLEWIGYIKPSSGYTKYAQKLQGRVTLTADKSTSTAYMELRSLRSDDTAVYYCARDYYGSSSWFAYWGQGTLVTVSS VL: EIVMTQSQATLSTSPGERATLSCKASQNVGTNVAWYQQKPGQAPRALIYSASYRYSGVPARFSGSGSGTDFTLTISSVEPEDFAVYYCQQYNSYPYMYTFGQGTKLEIK
Solution: 6.88

Problem: Requested field: pKd. Item: Ab408 (antibody, V domains shown, humanized) VH: EVQLVQSGAEVKKPGSSVKLSCKASGYTFTSYWMHWVRQAPGQGLEWIGYIKPSSGYTKYNQKFKDKATLTADKSTSTAYMELSSLRSEDTAVYYCARDYYGSSSWFAYWGQGTLVTVSS VL: EIVMTQSQATMSTSVGERATLSCKASQNVGTNVAWYQQKPGQSPKALIYSASYRYSGVPARFSGSGSGTDFTLTISSVEPEDFAVYYCQQYNSYPYMYTFGQGTKLEIK
Solution: 6.84

Problem: Requested field: pKd. Item: Ab415 (antibody, V domains shown, humanized) VH: QVQLVQSGAEVAKPGASVKLSCKASGYTFTSYWMHWVKQAPGQGLEWIGYIKPSSGYTKYNQKFKDKATLTADKSTSTAYMELRSLRSDDTAVYYCARDYYGSSSWFAYWGQGTLVTVSS VL: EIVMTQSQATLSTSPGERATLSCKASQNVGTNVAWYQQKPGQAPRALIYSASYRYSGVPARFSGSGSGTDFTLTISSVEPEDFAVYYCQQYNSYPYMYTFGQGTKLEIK
Solution: 6.89
